B1: glmS ribozyme (parent)
chain: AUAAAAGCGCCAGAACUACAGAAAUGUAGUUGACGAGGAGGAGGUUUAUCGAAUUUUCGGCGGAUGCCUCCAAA

Variants of: B1
ASSAY_NOTES: KM; higher = weaker cofactor use; RNA array
MEASUREMENT_CONTEXT: with glucosamine-6-phosphate
Quick list: log10 of KM per entry.
MEASURED_ENDPOINT: log10 of KM (log10 of the value in µM)

>  <MUTATION_LIST>
U45A U46C

>  <VALUE_REPORTED>
3.48

$$$$
>  <MUTATION_LIST>
G37A C70U

>  <VALUE_REPORTED>
3.58

$$$$
>  <MUTATION_LIST>
G13A U56A

>  <VALUE_REPORTED>
3.60

$$$$
>  <MUTATION_LIST>
G66U C70U

>  <VALUE_REPORTED>
3.26

$$$$
>  <MUTATION_LIST>
C10U A14G

>  <VALUE_REPORTED>
3.33

$$$$
>  <MUTATION_LIST>
A52U C71G

>  <VALUE_REPORTED>
3.23

$$$$
>  <MUTATION_LIST>
A33G U65A C70G

>  <VALUE_REPORTED>
2.80

$$$$
>  <MUTATION_LIST>
U31C G32U

>  <VALUE_REPORTED>
3.61

$$$$
>  <MUTATION_LIST>
A15G U65A C71A

>  <VALUE_REPORTED>
2.88

$$$$
>  <MUTATION_LIST>
A33C A42G

>  <VALUE_REPORTED>
3.72

$$$$
>  <MUTATION_LIST>
G9U C11A

>  <VALUE_REPORTED>
2.20

$$$$
>  <MUTATION_LIST>
A15U U49G

>  <VALUE_REPORTED>
3.24

$$$$
>  <MUTATION_LIST>
A42G U55C

>  <VALUE_REPORTED>
2.95

$$$$
>  <MUTATION_LIST>
U31C C67A

>  <VALUE_REPORTED>
3.29

$$$$
>  <MUTATION_LIST>
G44U C68U

>  <VALUE_REPORTED>
2.96

$$$$
>  <MUTATION_LIST>
U65C C71U

>  <VALUE_REPORTED>
3.16

$$$$
>  <MUTATION_LIST>
U45G U56A

>  <VALUE_REPORTED>
3.24

$$$$
>  <MUTATION_LIST>
G7A U31G

>  <VALUE_REPORTED>
3.40

$$$$
>  <MUTATION_LIST>
G44U

>  <VALUE_REPORTED>
3.31

$$$$
>  <MUTATION_LIST>
A42C U56G

>  <VALUE_REPORTED>
3.62

$$$$
>  <MUTATION_LIST>
G13U G32A

>  <VALUE_REPORTED>
3.55

$$$$
>  <MUTATION_LIST>
A42U A48U A64U C68U

>  <VALUE_REPORTED>
1.05

$$$$
>  <MUTATION_LIST>
A52G U55C

>  <VALUE_REPORTED>
3.57

$$$$
>  <MUTATION_LIST>
U30G A52G

>  <VALUE_REPORTED>
3.39

$$$$
>  <MUTATION_LIST>
A39C U45C

>  <VALUE_REPORTED>
3.49

$$$$
>  <MUTATION_LIST>
U30C U54A

>  <VALUE_REPORTED>
3.58

$$$$
>  <MUTATION_LIST>
A42U U46A

>  <VALUE_REPORTED>
3.64

$$$$
>  <MUTATION_LIST>
U55C C70U

>  <VALUE_REPORTED>
3.78

$$$$
>  <MUTATION_LIST>
C58A G66A

>  <VALUE_REPORTED>
3.67

$$$$
>  <MUTATION_LIST>
A6G C68U

>  <VALUE_REPORTED>
2.86

$$$$
>  <MUTATION_LIST>
C16U U47A

>  <VALUE_REPORTED>
3.49

$$$$
>  <MUTATION_LIST>
A12C U57C

>  <VALUE_REPORTED>
3.69

$$$$
>  <MUTATION_LIST>
U54A U57C

>  <VALUE_REPORTED>
3.31

$$$$
>  <MUTATION_LIST>
G40U U46A

>  <VALUE_REPORTED>
3.47

$$$$
>  <MUTATION_LIST>
U31A U57A

>  <VALUE_REPORTED>
3.38

$$$$
>  <MUTATION_LIST>
U31C

>  <VALUE_REPORTED>
3.37

$$$$
>  <MUTATION_LIST>
A12G A53U

>  <VALUE_REPORTED>
3.64

$$$$
>  <MUTATION_LIST>
A42G A53U

>  <VALUE_REPORTED>
3.35

$$$$
>  <MUTATION_LIST>
U31A U56G

>  <VALUE_REPORTED>
3.47

$$$$
>  <MUTATION_LIST>
A48U A64U

>  <VALUE_REPORTED>
3.74

$$$$
>  <MUTATION_LIST>
G32A U55A

>  <VALUE_REPORTED>
3.55

$$$$
>  <MUTATION_LIST>
A39G

>  <VALUE_REPORTED>
3.40

$$$$
>  <MUTATION_LIST>
U31C C71G

>  <VALUE_REPORTED>
3.29

$$$$
>  <MUTATION_LIST>
G13A U56A A64G

>  <VALUE_REPORTED>
3.36

$$$$
>  <MUTATION_LIST>
U46G U65A C71U

>  <VALUE_REPORTED>
3.33

$$$$
>  <MUTATION_LIST>
U31G G41A

>  <VALUE_REPORTED>
3.09

$$$$
>  <MUTATION_LIST>
G29C U45G

>  <VALUE_REPORTED>
3.63

$$$$
>  <MUTATION_LIST>
A14C U30C

>  <VALUE_REPORTED>
2.18

$$$$
>  <MUTATION_LIST>
A6G U30G

>  <VALUE_REPORTED>
3.73

$$$$
>  <MUTATION_LIST>
U46G A48G

>  <VALUE_REPORTED>
3.10

$$$$
>  <MUTATION_LIST>
U54G G59U

>  <VALUE_REPORTED>
2.74

$$$$
>  <MUTATION_LIST>
A14U A52U

>  <VALUE_REPORTED>
3.47

$$$$
>  <MUTATION_LIST>
C16U G40C

>  <VALUE_REPORTED>
3.01

$$$$
>  <MUTATION_LIST>
U31A U45C

>  <VALUE_REPORTED>
3.53

$$$$
>  <MUTATION_LIST>
A14U G40A

>  <VALUE_REPORTED>
3.18

$$$$
>  <MUTATION_LIST>
G32C A39U

>  <VALUE_REPORTED>
3.97

$$$$
>  <MUTATION_LIST>
A14U G29A

>  <VALUE_REPORTED>
3.53

$$$$
>  <MUTATION_LIST>
A12U G44C

>  <VALUE_REPORTED>
3.31

$$$$
>  <MUTATION_LIST>
A12C A52U

>  <VALUE_REPORTED>
3.40

$$$$
>  <MUTATION_LIST>
G37C A64U C68G

>  <VALUE_REPORTED>
1.46

$$$$
>  <MUTATION_LIST>
U31A G44U

>  <VALUE_REPORTED>
3.60

$$$$
>  <MUTATION_LIST>
C58A C67A

>  <VALUE_REPORTED>
3.36

$$$$
>  <MUTATION_LIST>
C58G

>  <VALUE_REPORTED>
3.50

$$$$
>  <MUTATION_LIST>
G13U A15U

>  <VALUE_REPORTED>
3.74

$$$$
>  <MUTATION_LIST>
C68U U69C

>  <VALUE_REPORTED>
3.45

$$$$
>  <MUTATION_LIST>
A39C C50U

>  <VALUE_REPORTED>
3.03

$$$$
>  <MUTATION_LIST>
A39G U45A

>  <VALUE_REPORTED>
2.76

$$$$
>  <MUTATION_LIST>
A33U

>  <VALUE_REPORTED>
3.44

$$$$
>  <MUTATION_LIST>
U54C C67G

>  <VALUE_REPORTED>
2.73

$$$$
>  <MUTATION_LIST>
G43A U56G

>  <VALUE_REPORTED>
3.53

$$$$
>  <MUTATION_LIST>
G13A G32U

>  <VALUE_REPORTED>
3.50

$$$$
>  <MUTATION_LIST>
A39G A53G

>  <VALUE_REPORTED>
3.44

$$$$
>  <MUTATION_LIST>
G29C U65G

>  <VALUE_REPORTED>
3.64

$$$$
>  <MUTATION_LIST>
A12C U45C

>  <VALUE_REPORTED>
3.86

$$$$
>  <MUTATION_LIST>
C50U C70U

>  <VALUE_REPORTED>
2.19

$$$$
>  <MUTATION_LIST>
A33C U65A

>  <VALUE_REPORTED>
2.79

$$$$
>  <MUTATION_LIST>
U56G C67G

>  <VALUE_REPORTED>
3.10

$$$$
>  <MUTATION_LIST>
C11U U55C

>  <VALUE_REPORTED>
3.79

$$$$
>  <MUTATION_LIST>
A12G G13C

>  <VALUE_REPORTED>
3.32

$$$$
>  <MUTATION_LIST>
C10U A39U

>  <VALUE_REPORTED>
3.80

$$$$
>  <MUTATION_LIST>
G41U A52G

>  <VALUE_REPORTED>
3.06

$$$$
>  <MUTATION_LIST>
C16U A48U

>  <VALUE_REPORTED>
3.42

$$$$
>  <MUTATION_LIST>
U31A G66A

>  <VALUE_REPORTED>
3.82

$$$$
>  <MUTATION_LIST>
C16G U30G

>  <VALUE_REPORTED>
3.61

$$$$
>  <MUTATION_LIST>
A14U G32U

>  <VALUE_REPORTED>
3.48

$$$$
>  <MUTATION_LIST>
C16G G32A

>  <VALUE_REPORTED>
3.46

$$$$
